Source: ChEMBL document CHEMBL3988442

- testedOn: Protein translocase subunit SecA (Escherichia coli (strain K12)) (UniProt P10408)
- Sequence (P10408 whole entry): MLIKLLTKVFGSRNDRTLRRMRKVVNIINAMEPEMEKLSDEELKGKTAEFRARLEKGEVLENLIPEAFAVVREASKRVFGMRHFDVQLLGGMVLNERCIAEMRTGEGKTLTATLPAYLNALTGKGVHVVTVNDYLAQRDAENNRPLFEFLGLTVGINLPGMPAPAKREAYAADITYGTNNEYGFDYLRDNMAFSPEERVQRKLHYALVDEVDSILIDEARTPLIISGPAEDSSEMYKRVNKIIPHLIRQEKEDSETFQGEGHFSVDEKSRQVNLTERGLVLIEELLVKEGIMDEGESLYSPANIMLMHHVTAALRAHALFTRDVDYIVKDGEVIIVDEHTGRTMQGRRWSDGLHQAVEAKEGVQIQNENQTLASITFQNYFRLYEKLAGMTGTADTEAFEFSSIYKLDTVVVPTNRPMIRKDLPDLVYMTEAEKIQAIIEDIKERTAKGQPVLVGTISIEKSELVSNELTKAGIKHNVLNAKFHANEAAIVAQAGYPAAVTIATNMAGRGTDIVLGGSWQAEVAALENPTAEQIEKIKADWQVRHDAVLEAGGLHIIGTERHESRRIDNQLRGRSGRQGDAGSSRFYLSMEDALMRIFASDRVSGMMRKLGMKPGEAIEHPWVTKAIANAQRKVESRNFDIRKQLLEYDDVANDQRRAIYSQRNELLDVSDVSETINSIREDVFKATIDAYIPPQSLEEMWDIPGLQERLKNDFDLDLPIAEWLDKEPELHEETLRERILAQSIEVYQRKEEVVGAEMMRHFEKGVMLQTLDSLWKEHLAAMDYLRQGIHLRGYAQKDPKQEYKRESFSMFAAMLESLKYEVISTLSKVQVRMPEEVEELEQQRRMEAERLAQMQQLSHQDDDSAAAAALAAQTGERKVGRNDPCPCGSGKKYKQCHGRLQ
- assayOverview: Assay to Identify E. coli SecA ATPase Inhibitors
- Type: functional
- Parameters: scale not given: direction of the effect not stated beside the values
- condition: 30 µM
Results with a measured potency or affinity are listed apart.
Hi there, I'd appreciate the recorded Percent Effect for every entry that follows.
The answer is to be given in %; state only the numeric part.

Consider COCC1c2c(cnn2CC2CCOCC2)CCN1Cc1ccoc1 (centres undefined) . Its measured Percent Effect is -3.48

Recorded Percent Effect (molecule CCCc1nc(CN2CCN(Cc3noc(CCC)n3)CC2)no1 ): -5.83

Lab note: CCCc1nc(CN2CCCC(Cn3cncn3)C2)no1 (centres undefined) gave Percent Effect of -6.43

Input O=C(CC1CN(Cc2ccccc2)CCO1)NC1CCCC1 (centres undefined) . Output Percent Effect: -6.09

The value of Percent Effect measured for the molecule Cc1cc(C)n(CC2CN(CC(=O)NC3CCCC3)CCO2)n1 (centres undefined) turned out to be -8.44

Item: CN(Cc1cnn(C)c1)C(=O)c1ccc(=O)n(C)n1 | Percent Effect: -3.21

Lab note: Cc1nccn1C1CCCN(C(=O)C2=NN(C)C(=O)CC2)C1 (centres undefined) gave Percent Effect of -0.962

The molecule COc1c(C(=O)NCc2cccnc2)nnn1Cc1ccc(C)cc1 showed Percent Effect equal to -1.69

Percent Effect reported for this molecule COc1ccccc1C1CNC(=O)c2nc(-c3cnn(C)c3)[nH]c2C1 (centres undefined) : 0.9

So for CNC(=O)[C@H]1C[C@@H]2CN(C(=O)c3ccco3)C[C@@H]2N1S(C)(=O)=O , the logged Percent Effect turned out to be -2.51

For record COCC(O)CN(C)C(=O)NC1CCN(Cc2ccccn2)CC1 (centres undefined) the listed Percent Effect is -2.64

The reported value for CN(C)CC1CN(Cc2cccc(C(=O)N(C)C)c2)CCO1 (centres undefined) in terms of Percent Effect is -4.12

The molecule identified as CC(C)(NCC(=O)NCC(F)(F)F)c1ccc2c(c1)OCCO2 registered its Percent Effect at -1.45

In plain terms, O=C(Nc1cccc(OCc2cccc(F)c2)c1)C1COCCO1 (centres undefined) has a documented Percent Effect of -6.19

Percent Effect reported for this molecule O=C(Cc1cccs1)N1C[C@@H]2COC[C@]2(COc2cccnc2)C1 : -2.91

Please fill in: Percent Effect reported for CC(O)CN1CCN(C(=O)c2cc3ccccc3[nH]c2=O)CC1 (centres undefined) = -2.78

Percent Effect measured on Cn1cnnc1C1CCCN(C(=O)NCCc2ccccc2F)C1 (centres undefined) = -3

GET /value?item= FC(F)(F)C1CCCn2c(CNCc3ccsc3)nnc21 (centres undefined) &field=Percent Effect returns -2.76

GET /value?item= CCc1cc(NC2CCN(S(C)(=O)=O)CC2)n2nc(C)c(C)c2n1 &field=Percent Effect returns 0.159

For Cc1cnc(CN(C)C2CCN(CC(=O)N(C)c3nccs3)C2)o1 (centres undefined) the molecule record lists Percent Effect as 2.75

Entry under test: Cc1cccc(C(=O)NC2CCN(c3cnn(C)c3)C2=O)n1 (centres undefined) . Its Percent Effect was -4.94

Form field Percent Effect, entry CN(Cc1nnc(C2CC2)n1C)C1CCN(Cc2ccccc2F)C1 (centres undefined) : -3.03

Percent Effect in this record for O=C(c1ccsc1)N1CC(C(=O)N2CCOCC2)C2(CCOCC2)C1 (centres undefined) : -0.06

In plain terms, COC(=O)c1ccc2ccn(CC3CCNC3)c(=O)c2c1 (centres undefined) has a documented Percent Effect of -1.56
